Target: human ERK-2 (Mitogen Activated Kinase 1) (Homo sapiens (Human))
Sequence (P28482 8-360): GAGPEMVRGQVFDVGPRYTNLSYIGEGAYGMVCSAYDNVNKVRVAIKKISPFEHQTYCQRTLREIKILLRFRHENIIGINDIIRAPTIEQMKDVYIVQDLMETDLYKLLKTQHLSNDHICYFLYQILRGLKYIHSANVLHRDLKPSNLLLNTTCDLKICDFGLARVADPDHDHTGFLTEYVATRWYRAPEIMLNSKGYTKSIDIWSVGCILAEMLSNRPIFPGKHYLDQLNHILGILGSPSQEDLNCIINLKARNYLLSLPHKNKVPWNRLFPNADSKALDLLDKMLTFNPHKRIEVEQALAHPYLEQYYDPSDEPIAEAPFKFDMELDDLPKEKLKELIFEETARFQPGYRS
Assay: ERK-2 Enzymatic Assay
Format: biochemical
Conditions: read-out: ERK IC50
measurement_kind: IC50 (nM)

(1) COc1ccc([C@H](NC(=O)c2ccc3cnc(N[C@@H]4CCOC4)cc3n2)c2cnn(C)c2)cc1F (single isomer, unassigned)
(2) COc1ccc([C@H](NC(=O)c2ccc3cnc(N[C@H]4CCOC4)cc3n2)c2cnn(C)c2)cc1F (single isomer, unassigned)
For this pair, 1 and 2 , which shows a numerically higher IC50? When you have decided, please share the label of that item.
1
(1: 2.75 nM, 2: 1.27 nM)
